Reference source: patent US11607404B2

test: Bi-directional Caco-2 permeability; assay type: in vitro ADME; details: human, Caco-2, apical to basolateral; read-out: AB Recovery %
recordedEndpoint: recovery at 90 min (%)

[
  {
    "compound": "CC(C)OC(=O)NC1CCC(c2ncc(-c3ccc(NC(=O)NCc4ccncc4)cc3S(=O)(=O)NC(C)(C)C)s2)CC1 (stereo not drawn)",
    "recovery at 90 min / %": 83.1
  },
  {
    "compound": "CC(C)OC(=O)N[C@H]1CC[C@H](c2ncc(-c3ccc(NC(=O)NCc4ncccc4F)cc3S(=O)(=O)NC(C)(C)C)s2)CC1",
    "recovery at 90 min / %": 70.5
  },
  {
    "compound": "CC(C)OC(=O)NC1CCC(c2ncc(-c3ccc(NC(=O)N[C@H](C)c4ccccn4)cc3S(=O)(=O)NC(C)(C)C)s2)CC1 (stereo partly drawn)",
    "recovery at 90 min / %": 79.8
  },
  {
    "compound": "CC(C)(C)NS(=O)(=O)c1cc(NC(=O)NCc2ccccc2)ccc1-c1cnc(C2CCC(NC(=O)OC(C)(C)C)CC2)s1 (stereo not drawn)",
    "recovery at 90 min / %": 59.9
  },
  {
    "compound": "CC(C)OC(=O)NC1CCC(c2ncc(-c3ccc(NC(=O)NCc4ccccc4F)cc3S(=O)(=O)NC(C)(C)C)s2)CC1 (stereo not drawn)",
    "recovery at 90 min / %": 66.9
  },
  {
    "compound": "CC(C)(C)NS(=O)(=O)c1cc(NC(=O)NCc2ccccn2)ccc1-c1cnc(C2CCC(NC(=O)OC(C)(C)C)CC2)s1 (stereo not drawn)",
    "recovery at 90 min / %": 73.6
  }
]

###

Below is a list of entries, each paired with its recorded F (%) @ 5 mg/kg value.
assay: Pharmacokinetic (PK) study; type: in vivo, Rat; settings: Rat Male; po @ 80 mg/kg (30% PEG400, 10% Vitamin E TPGS in water)
Write the answer as a number in %, unit excluded.

Some entries whose results are on file:
[
  {
    "compound": "CC(C)OC(=O)N[C@H]1CC[C@H](c2ncc(-c3ccc(NC(=O)NCc4ncccc4F)cc3S(=O)(=O)NC(C)(C)C)s2)CC1",
    "recordedEndpoint": "F (%) @ 5 mg/kg",
    "measurementUnits": "%",
    "value": 1.49
  },
  {
    "compound": "CC(C)OC(=O)N[C@H]1CC[C@H](c2ncc(-c3ccc(NC(=O)NCc4ccccc4)cc3S(=O)(=O)NC(C)(C)C)s2)CC1 [Compound 66A]",
    "recordedEndpoint": "F (%) @ 5 mg/kg",
    "measurementUnits": "%",
    "value": 2.55
  }
]

Request: Could you please provide reported F (%) @ 5 mg/kg for CC(C)OC(=O)Nc1ccc(-c2cnc([C@H]3CC[C@H](NC(=O)OC(C)C)CC3)s2)c(S(=O)(=O)NC(C)(C)C)c1 [Compound 67A] ? Thanks!
Response: 46.9

Request: Could you please provide reported F (%) @ 5 mg/kg for "CC(C)OC(=O)N[C@H]1CC[C@H](c2ncc(-c3ccc(NC(=O)NCc4ccccn4)cc3S(=O)(=O)NC(C)(C)C)s2)CC1" ? Thanks!
Response: 3.69

###

assay: Pharmacokinetic (PK) study; format: in vivo, Rat; conditions: Rat Female; po @ 80 mg/kg (30% PEG400, 10% Vitamin E TPGS in water)
recordedEndpoint: F (%) @ 5 mg/kg
Write the answer as a number in %, unit excluded.

[
  {
    "compound": "CC(C)OC(=O)Nc1ccc(-c2cnc([C@H]3CC[C@H](NC(=O)OC(C)C)CC3)s2)c(S(=O)(=O)NC(C)(C)C)c1 [Compound 67A]",
    "F (%) @ 5 mg/kg": 86.5
  },
  {
    "compound": "CC(C)OC(=O)N[C@H]1CC[C@H](c2ncc(-c3ccc(NC(=O)NCc4ncccc4F)cc3S(=O)(=O)NC(C)(C)C)s2)CC1 [Compound 31]",
    "F (%) @ 5 mg/kg": 2.77
  },
  {
    "compound": "CC(C)OC(=O)N[C@H]1CC[C@H](c2ncc(-c3ccc(NC(=O)NCc4ccccc4)cc3S(=O)(=O)NC(C)(C)C)s2)CC1 [Compound 66A]",
    "F (%) @ 5 mg/kg": 3.31
  }
]

Request: Could you please provide reported F (%) @ 5 mg/kg for CC(C)OC(=O)N[C@H]1CC[C@H](c2ncc(-c3ccc(NC(=O)NCc4ccccn4)cc3S(=O)(=O)NC(C)(C)C)s2)CC1 [Compound 29] ? Thanks!
Response: 8.39
